target: Human αvβ3 (Homo sapiens, UniProt P05106+P06756); construct: purchased Chemicon International Inc., Temecula, Calif; test: In Vitro Solid Phase Purified αvβ3 Binding Assay (vitronectin/αvβ3); settings: vitronectin binding to immobilized purified human αvβ3; mean ± spread; read-out: αvβ3IC50
Sequence (P06756 31-889 limits assumed): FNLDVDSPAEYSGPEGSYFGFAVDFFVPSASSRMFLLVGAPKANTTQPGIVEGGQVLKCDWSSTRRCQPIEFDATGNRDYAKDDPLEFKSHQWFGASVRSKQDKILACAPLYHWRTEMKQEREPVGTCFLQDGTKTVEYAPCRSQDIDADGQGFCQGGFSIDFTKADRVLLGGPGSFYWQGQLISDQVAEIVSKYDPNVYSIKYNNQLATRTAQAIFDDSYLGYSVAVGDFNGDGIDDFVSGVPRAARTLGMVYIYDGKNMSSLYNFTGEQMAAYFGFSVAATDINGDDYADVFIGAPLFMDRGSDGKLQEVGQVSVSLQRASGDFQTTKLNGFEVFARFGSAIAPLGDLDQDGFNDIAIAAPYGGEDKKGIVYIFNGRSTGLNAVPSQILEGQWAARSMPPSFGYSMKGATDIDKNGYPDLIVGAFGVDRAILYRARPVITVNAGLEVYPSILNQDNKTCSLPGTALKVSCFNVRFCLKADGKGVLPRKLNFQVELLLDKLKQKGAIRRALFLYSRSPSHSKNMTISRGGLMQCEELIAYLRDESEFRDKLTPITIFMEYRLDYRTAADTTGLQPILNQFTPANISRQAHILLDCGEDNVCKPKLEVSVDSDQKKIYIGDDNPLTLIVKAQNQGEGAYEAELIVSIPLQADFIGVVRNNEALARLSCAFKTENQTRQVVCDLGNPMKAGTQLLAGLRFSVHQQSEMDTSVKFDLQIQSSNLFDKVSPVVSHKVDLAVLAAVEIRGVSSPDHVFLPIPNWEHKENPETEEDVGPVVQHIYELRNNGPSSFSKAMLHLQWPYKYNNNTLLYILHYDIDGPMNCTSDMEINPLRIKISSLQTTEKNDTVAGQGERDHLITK
Sequence (P06756 891-1048 partner limits assumed): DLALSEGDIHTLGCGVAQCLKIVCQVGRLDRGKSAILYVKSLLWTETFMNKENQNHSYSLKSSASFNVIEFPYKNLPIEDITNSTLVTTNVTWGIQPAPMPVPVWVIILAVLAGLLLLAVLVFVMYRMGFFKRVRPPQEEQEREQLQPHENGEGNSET
Sequence (P05106 27-788): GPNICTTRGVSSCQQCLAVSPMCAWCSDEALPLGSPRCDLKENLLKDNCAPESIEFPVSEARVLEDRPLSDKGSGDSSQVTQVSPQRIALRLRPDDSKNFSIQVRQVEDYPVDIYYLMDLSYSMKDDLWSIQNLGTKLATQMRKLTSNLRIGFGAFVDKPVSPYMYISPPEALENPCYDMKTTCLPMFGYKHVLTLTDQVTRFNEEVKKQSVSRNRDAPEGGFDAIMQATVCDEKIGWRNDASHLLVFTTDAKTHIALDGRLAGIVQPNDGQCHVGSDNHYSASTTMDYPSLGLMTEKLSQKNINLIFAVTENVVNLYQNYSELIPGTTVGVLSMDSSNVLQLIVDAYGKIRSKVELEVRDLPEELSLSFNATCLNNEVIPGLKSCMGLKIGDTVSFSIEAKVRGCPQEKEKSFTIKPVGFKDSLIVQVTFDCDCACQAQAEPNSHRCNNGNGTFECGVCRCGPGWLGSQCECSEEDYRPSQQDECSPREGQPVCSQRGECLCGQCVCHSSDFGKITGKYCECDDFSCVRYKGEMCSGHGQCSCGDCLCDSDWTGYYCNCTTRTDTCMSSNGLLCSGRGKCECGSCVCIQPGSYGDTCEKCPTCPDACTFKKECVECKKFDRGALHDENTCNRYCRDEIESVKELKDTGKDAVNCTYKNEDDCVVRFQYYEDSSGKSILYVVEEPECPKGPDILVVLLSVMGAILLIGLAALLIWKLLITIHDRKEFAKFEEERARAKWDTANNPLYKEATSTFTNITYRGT
pIC50: −log10 of the molar value.
Listed here are compounds together with their documented pIC50.
QUANTITY_NAME: pIC50

{"COMPOUND": "CC(C)(C)OC(=O)CCCC1CCN(C(=O)CCc2ccc3c(n2)NCCC3)CC1", "VALUE_PREFIX": "<", "READOUT_VALUE": 6.30}
{"COMPOUND": "O=C(O)CC(CC1CCN(C(=O)CCCc2ccc3c(n2)NCCC3)CC1)c1ccc(F)cc1 (stereo not shown)", "VALUE_PREFIX": "=", "READOUT_VALUE": 6.83}
{"COMPOUND": "O=C(O)CCCC1CCN(C(=O)CCc2ccc3c(n2)NCCC3)CC1", "VALUE_PREFIX": "=", "READOUT_VALUE": 8.35}
{"COMPOUND": "COc1ccc(C(CCC2CCN(C(=O)CCc3ccc4c(n3)NCCC4)CC2)CC(=O)O)cn1 (stereo not shown) [Cpd 21]", "VALUE_PREFIX": "=", "READOUT_VALUE": 7.55}
{"COMPOUND": "CC(C)OC(=O)CCCC1CCN(C(=O)CCc2ccc3c(n2)NCCC3)CC1", "VALUE_PREFIX": "<", "READOUT_VALUE": 6.30}
{"COMPOUND": "O=C(O)CC(CCC1CCN(C(=O)c2cccc(NC3=NCC(O)CN3)c2)CC1)c1cnc2ccccc2c1 (stereo not shown)", "VALUE_PREFIX": "=", "READOUT_VALUE": 8.74}
{"COMPOUND": "O=C(O)CC(CC1CCN(C(=O)CCc2ccc3c(n2)NCCC3)CC1)c1ccc2ccccc2c1 (single isomer, unassigned) [Cpd 56a]", "VALUE_PREFIX": "=", "READOUT_VALUE": 9.30}
{"COMPOUND": "COc1ccc(C(CC(=O)O)CC2CCN(C(=O)CCc3ccc4c(n3)NCCC4)CC2)cn1 (single isomer, unassigned) [Cpd 28a]", "VALUE_PREFIX": "=", "READOUT_VALUE": 9.52}
{"COMPOUND": "O=C(O)CC(CC1CCN(C(=O)CCc2ccc3c(n2)NCCC3)CC1)c1ccc2c(c1)OCC2 (single isomer, unassigned) [Cpd 36b]", "VALUE_PREFIX": "=", "READOUT_VALUE": 7.08}
{"COMPOUND": "O=C(O)CC(CC1CCN(C(=O)CCc2ccc3c(n2)NCCC3)CC1)c1cncc2ccccc12 (stereo not shown)", "VALUE_PREFIX": "=", "READOUT_VALUE": 8.66}
{"COMPOUND": "O=C(O)CC(CCC1CCN(C(=O)CCCNc2ccccn2)CC1)c1cccnc1 (stereo not shown)", "VALUE_PREFIX": "<", "READOUT_VALUE": 6.00}
{"COMPOUND": "CCNc1cccc(C(CC(=O)O)CC2CCN(C(=O)CCc3ccc4c(n3)NCCC4)CC2)c1 (racemic)", "VALUE_PREFIX": "=", "READOUT_VALUE": 8.24}
{"COMPOUND": "O=C(O)CC(CC1CCN(C(=O)CCc2ccc3c(n2)NCCC3)CC1)c1ccc2c(c1)OCO2 (stereo not shown)", "VALUE_PREFIX": "=", "READOUT_VALUE": 8.96}
{"COMPOUND": "CNc1cccc(C(CC(=O)O)CC2CCN(C(=O)CCc3ccc4c(n3)NCCC4)CC2)c1 (racemic)", "VALUE_PREFIX": "=", "READOUT_VALUE": 8.46}
{"COMPOUND": "O=C(O)CC(CCC1CCN(C(=O)c2cccc(NC3=NCC(O)CN3)c2)CC1)c1cccnc1 (stereo not shown)", "VALUE_PREFIX": "=", "READOUT_VALUE": 8.09}
{"COMPOUND": "O=C(O)CC(CC1CCN(C(=O)CCc2ccc3c(n2)NCCC3)CC1)C1CNc2ccccc2C1 (single isomer, unassigned) [Cpd 19-1]", "VALUE_PREFIX": "=", "READOUT_VALUE": 7.44}
